- TEST SYSTEM: MDM2 (Homo sapiens)
- Sequence (Q00987 whole entry): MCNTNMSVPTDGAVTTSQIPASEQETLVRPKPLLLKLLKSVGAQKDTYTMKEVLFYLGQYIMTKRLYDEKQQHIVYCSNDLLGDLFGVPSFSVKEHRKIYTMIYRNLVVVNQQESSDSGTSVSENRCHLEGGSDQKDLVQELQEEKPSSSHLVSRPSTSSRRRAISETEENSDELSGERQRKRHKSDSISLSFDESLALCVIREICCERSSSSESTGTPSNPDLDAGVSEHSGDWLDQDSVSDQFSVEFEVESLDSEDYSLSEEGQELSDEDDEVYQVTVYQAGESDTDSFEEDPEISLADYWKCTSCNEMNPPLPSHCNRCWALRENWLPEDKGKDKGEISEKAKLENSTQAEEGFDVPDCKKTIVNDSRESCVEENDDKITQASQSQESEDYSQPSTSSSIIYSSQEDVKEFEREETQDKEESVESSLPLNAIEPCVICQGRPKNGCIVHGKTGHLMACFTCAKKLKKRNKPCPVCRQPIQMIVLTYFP
- TEST NAME: MDM2 binding screen: displacement of fluorescent p53 peptide probe FP53 (fluorescence polarization)
- SETUP CONDITIONS: Acid 14; replicate; crude macrocycle reactions
Numbered stars: 1 amine (or outer) side, 2 acyl side, 3 side chain; on linkers, the order of the positions; unused ones are H or OH. Bridge positions count the residues as written; N and C are the ends. Square brackets hold non-standard residues; d marks the D form. Peptide text beside a SMILES is read from it. * marks the point of attachment. 2Thenoyl(5-Cl) = O=C(c1ccc(Cl)s1)*; Cysteamide = C(CS[*:3])N[*:1]; Api = NC1(C(=O)O)CCNCC1; Mpa = O=C(O)CCS
Outcome: true for fraction fluorescent probe displaced, Replicate of at least 0.1; false for anything lower.

{"COMPOUND": "O=C1CCSSCCNC(=O)C2CCCN(C2)C(=O)C2(CCN(C(=O)c3ccc(Cl)s3)CC2)NC(=O)C(Cc2c[nH]c3ccccc23)N1 (stereo not drawn)", "LABEL": "true"}
{"COMPOUND": "O=C1CCNC(=O)[C@H](Cc2c[nH]c3ccccc23)NC(=O)CCSSCCNC(=O)[C@H](CNC(=O)c2ccc(Cl)s2)N1", "LABEL": "true"}
{"COMPOUND": "O=C1CCSSCCNC(=O)C2(CCN(C(=O)c3ccc(Cl)s3)CC2)NC(=O)[C@H](Cc2ccccc2)NC(=O)CCN1", "LABEL": "true"}
{"COMPOUND": "O=C1CCSSCCNC(=O)[C@H](CNC(=O)c2ccc(Cl)s2)NC(=O)[C@H]2CCCN(C2)C(=O)[C@H](Cc2ccccc2)N1", "LABEL": "true"}
{"COMPOUND": "O=C1CCSSCCNC(=O)c2cccc(c2)CNC(=O)C2CC(NC(=O)c3ccc(Cl)s3)CN2C(=O)C(Cc2ccccc2)N1 (stereo not drawn)", "LABEL": "false"}
{"COMPOUND": "O=C1CCNC(=O)C2(CCN(C(=O)c3ccc(Cl)s3)CC2)NC(=O)CCSSCCNC(=O)[C@H](Cc2c[nH]c3ccccc23)N1", "LABEL": "true"}
{"COMPOUND": "O=C1CCSSCCNC(=O)C(Cc2ccccc2)NC(=O)C2CCCN2C(=O)C2(CCN(C(=O)c3ccc(Cl)s3)CC2)N1 (stereo not drawn) [X D6 B1 F Acid 14] ([Mpa][Api](2Thenoyl(5-Cl))PF-Cysteamide; disulfide 1-C; configuration not given here)", "LABEL": "false"}
{"COMPOUND": "O=C1CCSSCCNC(=O)C2CN(C(=O)c3ccc(Cl)s3)CCN2C(=O)C2CCCN(C2)C(=O)C(Cc2c[nH]c3ccccc23)N1 (stereo not drawn)", "LABEL": "true"}
{"COMPOUND": "O=C1CCSSCCNC(=O)C2(CCN(C(=O)c3ccc(Cl)s3)CC2)NC(=O)CCNC(=O)[C@H](Cc2c[nH]c3ccccc23)N1", "LABEL": "false"}
{"COMPOUND": "O=C1NC(Cc2c[nH]c3ccccc23)C(=O)N2CCN(C(=O)c3ccc(Cl)s3)CC2C(=O)NCCSSCCC(=O)N2CCCC1C2 (stereo not drawn)", "LABEL": "true"}
{"COMPOUND": "O=C1CCSSCCNC(=O)c2cccc(c2)CNC(=O)[C@H](CNC(=O)c2ccc(Cl)s2)NC(=O)[C@H](Cc2c[nH]c3ccccc23)N1", "LABEL": "false"}
